Biological target: CRTH2 (Homo sapiens (Human), UniProt Q9Y5Y4)
Sequence (Q9Y5Y4 whole entry): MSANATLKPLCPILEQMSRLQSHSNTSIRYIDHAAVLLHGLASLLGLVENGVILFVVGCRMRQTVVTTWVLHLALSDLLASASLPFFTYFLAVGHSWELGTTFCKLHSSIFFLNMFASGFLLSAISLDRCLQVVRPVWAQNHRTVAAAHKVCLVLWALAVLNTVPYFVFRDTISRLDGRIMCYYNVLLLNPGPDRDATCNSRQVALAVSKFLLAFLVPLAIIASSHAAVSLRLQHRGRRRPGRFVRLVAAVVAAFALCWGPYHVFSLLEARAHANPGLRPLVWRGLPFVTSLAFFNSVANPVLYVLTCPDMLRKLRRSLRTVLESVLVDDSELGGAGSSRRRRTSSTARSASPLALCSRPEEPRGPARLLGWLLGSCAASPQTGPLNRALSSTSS
Test: CRTH2 receptor binding inhibitory activity ([3H]-PGD2 displacement, membranes of CRTH2-expressing K562 cell)
Details: [3H]-PGD2 displacement, membrane of CRTH2-expressing K562 cell; read-out: Ki
measurementName: Ki (nM)
Give the number; nM is assumed, so skip it.

Below, each entry is followed by its recorded Ki result.
compound	Ki, nM
CCC[C@@H]1CN(S(=O)(=O)c2ccc(OC(C)C)cc2)C[C@@H]1n1nc(CC(=O)O)c2ccc(F)cc21	77
CC(C)Oc1ccc(S(=O)(=O)N2C[C@@H](C)[C@@H](n3nc(CC(=O)O)c4ccc(F)cc43)C2)c(F)c1	5.1
CC(C)Oc1ccc(S(=O)(=O)N2C[C@@H](C)[C@@H](n3nc(Cc4nnn[nH]4)c4ccc(F)cc43)C2)cc1	270

### Prompt Quick check: Ki of `CC(C)Oc1ccc(S(=O)(=O)N2C[C@@H](C)[C@@H](n3nc(CC(=O)O)c4cccnc43)C2)cc1` ?
### Response 3.1

### Prompt Then `C[C@@H]1CN(S(=O)(=O)c2ccc3occc3c2)C[C@@H]1n1nc(CC(=O)O)c2ccccc21` ?
### Response 22

### Prompt Then `CC(C)Oc1ccc(S(=O)(=O)N2C[C@@H](N3CCCC3)[C@@H](n3nc(CC(=O)O)c4ccc(F)cc43)C2)cc1` ?
### Response 16

### Prompt Then CCOc1ccc(S(=O)(=O)N2C[C@@H](C)[C@@H](n3nc(C(C)C(=O)O)c4ccccc43)C2)cc1 (stereo partly drawn) ?
### Response 55

### Prompt Then `CC(C)Oc1ccc(S(=O)(=O)N2C[C@H](n3nc(CC(=O)O)c4ccc(F)cc43)C[C@H]2CO)cc1` ?
### Response 6.2

### Prompt Then `C[C@@H]1CN(S(=O)(=O)c2ccc(Cl)cc2)C[C@@H]1n1nc(CC(=O)O)c2ccc(F)cc21` ?
### Response 0.59

### Prompt Then `CCOc1ccc(S(=O)(=O)N2C[C@@H](C)[C@@H](n3nc(CC(=O)O)c4ccccc43)C2)cc1` ?
### Response 13

### Prompt Then `Cc1ccc(S(=O)(=O)N2C[C@@H](C)[C@@H](n3c(C)c(CC(=O)O)c4ccccc43)C2)cc1` ?
### Response 40

### Prompt Then `CC(C)Oc1ccc(S(=O)(=O)N2C[C@H](n3nc(CC(=O)O)c4ccc(F)cc43)C[C@@H]2Cn2cccn2)cc1` ?
### Response 10

Sourced from patent US9725442B2
